- Test system: 3',5'-cyclic-AMP phosphodiesterase 4D (Homo sapiens, UniProt Q08499); note: assay procedure not described here
- Sequence (Q08499 whole entry): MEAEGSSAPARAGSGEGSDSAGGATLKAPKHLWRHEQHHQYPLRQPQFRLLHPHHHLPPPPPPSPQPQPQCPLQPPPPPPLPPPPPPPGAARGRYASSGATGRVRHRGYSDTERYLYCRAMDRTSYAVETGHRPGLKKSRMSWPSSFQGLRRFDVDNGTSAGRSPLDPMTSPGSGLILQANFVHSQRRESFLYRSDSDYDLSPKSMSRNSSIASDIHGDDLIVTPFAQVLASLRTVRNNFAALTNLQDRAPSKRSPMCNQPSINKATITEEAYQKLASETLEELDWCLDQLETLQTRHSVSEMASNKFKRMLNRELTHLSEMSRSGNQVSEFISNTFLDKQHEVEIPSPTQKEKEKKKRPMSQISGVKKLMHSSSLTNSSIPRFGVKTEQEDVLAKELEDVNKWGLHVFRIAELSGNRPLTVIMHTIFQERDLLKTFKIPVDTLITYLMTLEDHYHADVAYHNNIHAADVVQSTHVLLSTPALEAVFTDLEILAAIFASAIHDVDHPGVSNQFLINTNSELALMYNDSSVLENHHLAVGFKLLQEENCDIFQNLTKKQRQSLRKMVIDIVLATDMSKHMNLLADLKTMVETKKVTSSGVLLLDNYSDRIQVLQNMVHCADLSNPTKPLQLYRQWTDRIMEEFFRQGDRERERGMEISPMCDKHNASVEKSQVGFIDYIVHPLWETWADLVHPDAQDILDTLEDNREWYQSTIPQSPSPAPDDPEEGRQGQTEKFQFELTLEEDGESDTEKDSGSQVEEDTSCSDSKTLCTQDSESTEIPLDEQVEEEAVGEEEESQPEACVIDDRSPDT
- Format: functional
Measured AC50 of individual entries

- Compound: "OCCN(CCO)c1nc(N2CCCCC2)c2nc(N(CCO)CCO)nc(N3CCCCC3)c2n1"
  AC50: "4.5 µM"
- Compound: "CC(=O)OCC1=C(C(=O)O)N2C(=O)[C@@H](NC(=O)CSc3ccncc3)[C@H]2SC1"
  AC50: "> 30 µM"
- Compound: "C#CCN(C)Cc1ccccc1"
  AC50: "> 30 µM"
- Compound: "CCC(=O)O[C@H](CC(=O)O)C[N+](C)(C)C [LEVOCARNITINE PROPIONATE]"
  AC50: "> 30 µM"
- Compound: "CCCO[C@H]1[C@@H]([C@@H](COCc2ccc(Cl)cc2)OCc2ccc(Cl)cc2)OC(OCC)[C@@H]1O (some centres not stated) [CLOBENOSIDE]"
  AC50: "> 30 µM"
- Compound: "CCc1ccc(C(=O)C(C)CN2CCCCC2)cc1 (configuration not stated)"
  AC50: "> 30 µM"
- Compound: "CCC1(CC)C(=O)NC(=O)N(C)C1=O"
  AC50: "> 30 µM"
- Compound: "Nc1c2c(nc3ccccc13)CCCC2O (configuration not stated)"
  AC50: "> 30 µM"
- Compound: "O=C1[C@@H]2[C@H]3CC[C@H](C3)[C@@H]2C(=O)N1C[C@@H]1CCCC[C@H]1CN1CCN(c2nsc3ccccc23)CC1"
  AC50: "> 30 µM"
- Compound: "O=C(C[S+]([O-])Cc1ccco1)NC/C=C\\COc1cc(CN2CCCCC2)ccn1 (configuration not stated)"
  AC50: "> 30 µM"
- Compound: "CC(C)(CO)c1cc2cc(NC(=O)C3(c4ccc5c(c4)OC(F)(F)O5)CC3)c(F)cc2n1C[C@@H](O)CO"
  AC50: "8.7 µM"
- Compound: "Cc1ccc(S(=O)(=O)NC(=O)N[C@H]2[C@H]3CC[C@@](C)([C@H]2O)C3(C)C)cc1 [GLIBORNURIDE]"
  AC50: "> 30 µM"
- Compound: "CCCCCCCC(=O)CC[C@@H]1[C@@H](C/C=C\\CCCC(=O)O)[C@@H](O)C[C@H]1O"
  AC50: "> 30 µM"
- Compound: "CC1Cc2ccccc2N1NC(=O)c1ccc(Cl)c(S(N)(=O)=O)c1 (configuration not stated) [INDAPAMIDE]"
  AC50: "> 10 µM"
- Compound: "CO/N=C(\\C(=O)N[C@@H]1C(=O)N2C(C(=O)[O-])=C(C[n+]3ccc(N)n3CCO)CS[C@H]12)c1csc(N)n1"
  AC50: "> 30 µM"
- Compound: "CC(=O)OCC1=C(C(=O)O)N2C(=O)[C@@H](NC(=O)Cc3cccs3)[C@H]2SC1"
  AC50: "> 30 µM"
- Compound: "O=C(Cc1cccs1)N[C@@H]1C(=O)N2C(C(=O)[O-])=C(C[n+]3ccccc3)CS[C@H]12"
  AC50: "> 30 µM"

Sourced from ChEMBL document CHEMBL5291721
